# method-notes: Mouse absorption test (pharmacokinetic properties in mice)
# Format: in vivo
# condition-description: intragastric, 30 mg/kg, DNAUC = AUC/Dose
What DNAUC was measured for each of the following?
Give bare numbers, in ng/ml*h/mpk.

CN1CCN([C@@H]2CCCN(c3nnc(C(N)=O)c(Nc4ccc(N5CCN(CC6CCN(c7ccc(C(=O)N[C@H]8CCC(=O)NC8=O)nc7)C6)CC5)c(F)c4)n3)C2)C1=O (stereo partly shown): 2704

Batch: DNAUC for all items listed.
1. CN1CCN([C@@H]2CCCN(c3nnc(C(N)=O)c(Nc4ccc(N5CCN(CC6CCN(c7ccc(C(=O)NC8CCC(=O)NC8=O)c(F)c7)CC6)CC5)c(F)c4)n3)C2)C1=O (stereo partly shown)
2. CN1CCN([C@@H]2CCCN(c3nnc(C(N)=O)c(Nc4ccc(C5CCN(CC6CCN(c7ccc8c(c7)C(=O)N(C7CCC(=O)NC7=O)C8=O)CC6)CC5)cc4)n3)C2)C1=O (stereo partly shown)
3. CN1CCN([C@@H]2CCCN(c3nnc(C(N)=O)c(Nc4ccc(N5CCN(C[C@H]6CCN(c7ccc8c(c7)C(=O)N(C7CCC(=O)NC7=O)C8=O)C6)CC5)c(F)c4)n3)C2)C1=O (stereo partly shown)

1: 2536; 2: 1920; 3: 2430
